test: BSK_LPS_PGE2: BioMAP Diversity Plus: LPS Assay for Prostaglandin E2 (PGE2) Biomarker Activity (AID 2283082); conditions: primary human HUVEC with PBMC; actives raise or lower the signal
The source made the active and inactive calls. The calls were made as follows: active = hit-call score of the fitted dose curve at least 0.9, where 1 is the maximum; inactive = score below 0.9.
Reply using exactly one outcome from y for active, n for inactive

INPUT: In this assay, the call recorded for "COP(=S)(OC)SCn1nnc2ccccc2c1=O" was what?
OUTPUT: y

INPUT: GET /call?item= "Nc1c(Cl)c(Cl)nc(C(=O)O)c1Cl" returns the recorded outcome of this test.
OUTPUT: n

INPUT: Field: outcome | Entry: "C=CCOC(=O)C(C)(C)OC(=O)c1cc(-n2c(=O)cc(C(F)(F)F)n(C)c2=O)ccc1Cl"
OUTPUT: n

INPUT: Can you look up the reported call for CC(C)=CC1C(C(=O)OCc2coc(Cc3ccccc3)c2)C1(C)C (stereo not given) for me?
OUTPUT: n

INPUT: Which outcome was entered for the compound CC1(C)CCC(=Cc2ccc(Cl)cc2)C1(O)Cn1cncn1 (stereo not given) in this test?
OUTPUT: n

INPUT: I would be grateful if you could indicate the recorded call for "CCCCOCN(C(=O)CCl)c1c(CC)cccc1CC" .
OUTPUT: n

INPUT: Each compound tested received a call. Report the one for "Cc1ccc(N=CN(C)C=Nc2ccc(C)cc2C)c(C)c1" .
OUTPUT: y

INPUT: What did this assay record as the result for "CC1(C)CON(Cc2ccccc2Cl)C1=O" ?
OUTPUT: n

INPUT: Outcome? "CC(C)N1C(=O)c2ccccc2NS1(=O)=O"
OUTPUT: n

INPUT: For "Cc1cc(C)nc(Nc2ccccc2)n1" , which call appears in the assay record?
OUTPUT: n

INPUT: I'd appreciate the recorded outcome for "Cn1c(-c2ccccc2)cc(-c2ccccc2)[n+]1C" from this test.
OUTPUT: n

INPUT: Each compound tested received a call. Report the one for "CCOc1nc(C(Cl)(Cl)Cl)ns1" .
OUTPUT: n

INPUT: Please state the recorded outcome for this compound: CCCC(=NOCC)C1=C(O)CC(CC(C)SCC)CC1=O (stereo not given)
OUTPUT: n

INPUT: Record lookup: outcome of this test for "O=C(O)c1c(Cl)ccc2cc(Cl)cnc12" ?
OUTPUT: n

INPUT: Entry "CC(C)Nc1nc(Cl)nc(NC(C)C)n1" : call = ?
OUTPUT: n

INPUT: # outcome recorded in this test, key = "COC(=O)NC(=S)Nc1ccccc1NC(=S)NC(=O)OC"
OUTPUT: n

INPUT: Dear all, I need the recorded test outcome for "CN=C=S" , thank you.
OUTPUT: n

INPUT: Dear all, I need the recorded test outcome for "CSC(=O)c1c(C(F)F)nc(C(F)(F)F)c(C(=O)SC)c1CC(C)C" , thank you.
OUTPUT: n

INPUT: Which result was noted for this compound in the test: CCCN(CC)CC1COC2(CCC(C(C)(C)C)CC2)O1 (stereo not given)
OUTPUT: n

INPUT: # lookup: test call for CCOc1cc(C(C)(C)C)ccc1C1COC(c2c(F)cccc2F)=N1 (stereo not given)
OUTPUT: y

INPUT: Per the assay record, what outcome was assigned to "N#Cc1c(Cl)cccc1Cl" ?
OUTPUT: n

INPUT: Check the results log: what was the call for "N#Cc1c[nH]cc1-c1cccc2c1OC(F)(F)O2" ?
OUTPUT: n

INPUT: Call for entry "Cc1nc(N(C)C)nc(OC(=O)N(C)C)c1C" :
OUTPUT: n

INPUT: Can you look up the reported call for "CO/N=C(/C1=NOCCO1)c1ccccc1Oc1ncnc(Oc2ccccc2Cl)c1F" for me?
OUTPUT: n

INPUT: Fill in: this test's call for CC(C)C1(C)N=C(c2ncccc2C(=O)O)NC1=O (stereo not given) is ___
OUTPUT: n

INPUT: # fetch the recorded call for "CN/C(=N\[N+](=O)[O-])NCc1cnc(Cl)s1" here
OUTPUT: n

INPUT: Called result for "CCOc1nc(F)cc2nc(S(=O)(=O)Nc3c(Cl)cccc3Cl)nn12"
OUTPUT: n

INPUT: Any idea what this test logged for "CCSC(=O)N1CCCCCC1" ?
OUTPUT: n

INPUT: Which outcome did this test record for the compound "COc1cc(Cl)c(OC)cc1Cl" ?
OUTPUT: n

INPUT: Dear colleague, could you share the recorded outcome for "N#CN=C1SCCN1Cc1ccc(Cl)nc1" when you have a moment?
OUTPUT: n

INPUT: Recorded test outcome, item "Nc1c(Cl)c(F)nc(OCC(=O)O)c1Cl"
OUTPUT: n

INPUT: Which outcome did this test record for the compound CC1(C)C(C(=O)OC(C#N)c2cccc(Oc3ccccc3)c2)C1(C)C (stereo not given) ?
OUTPUT: y

INPUT: Record request — test call for CCNP(=S)(OC)O/C(C)=C/C(=O)OC(C)C (stereo not given)
OUTPUT: n

INPUT: Hi, sorry to bother you, what did the test record for "CNC(=O)Oc1cccc2ccccc12" ?
OUTPUT: y

INPUT: Which result was noted for this compound in the test: COCc1cnc(C2=NC(C)(C(C)C)C(=O)N2)c(C(=O)O)c1 (stereo not given)
OUTPUT: n

INPUT: Recorded test call requested for "COc1cc(OC)nc(NC(=O)NS(=O)(=O)c2ncccc2OCC(F)(F)F)n1"
OUTPUT: n

INPUT: Which outcome was assigned to "CS(=O)(=O)c1cc(C(F)(F)F)ccc1C(=O)c1cnoc1C1CC1" in this test?
OUTPUT: n

INPUT: I would be grateful if you could indicate the recorded call for CC(C)(C)C(=O)C(Oc1ccc(Cl)cc1)n1cncn1 (stereo not given) .
OUTPUT: n

INPUT: Record lookup: outcome of this test for "CCOP(=O)(OCC)Oc1nc(Cl)c(Cl)cc1Cl" ?
OUTPUT: n

INPUT: State the result this test recorded for "COP(=O)(OC)O/C(C)=C/C(=O)N(C)C" .
OUTPUT: y

INPUT: Dear all, I need the recorded test outcome for COCC(=O)N(c1c(C)cccc1C)C(C)C(=O)OC (stereo not given) , thank you.
OUTPUT: n

INPUT: Outcome logged for CCC(C)n1c(=O)[nH]c(C)c(Br)c1=O (stereo not given) in this assay:
OUTPUT: n

INPUT: I'd appreciate the recorded outcome for "COc1ccc(-c2ccccc2)cc1NNC(=O)OC(C)C" from this test.
OUTPUT: y

INPUT: Returns: the outcome recorded for "Nc1cnn(-c2ccccc2)c(=O)c1Cl" in this assay.
OUTPUT: n

INPUT: Lab log entry: CCCCC(O)(Cn1cncn1)c1ccc(Cl)cc1Cl (stereo not given) — outcome as called in the assay?
OUTPUT: y
